# assay explanation: Restrictive medium S. cerevisiae growth inhibition, OD615, pilot screen of yeast lifespan reduction project, restrictive growth control (AID 706);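 note: modified DeaD lifespan yeast strain shifted to restrictive glucose medium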
# test settings: OD615, 48 h, at 10 µM, hits give high values
reported endpoint: growth inhibition (%)
Field: numeric (%). Do not append units.

CCn1cc(C(=O)OCC(=O)Nc2c(C)n(C)n(-c3ccccc3)c2=O)c(=O)c2ccc(C)nc21	-0.91
CCOC(=O)c1ccc(NC(=O)C2CCN(S(=O)(=O)c3ccccc3)CC2)cc1	-10.7
O=C(NCCN1CCN(c2cccc(Cl)c2)CC1)C1CCCN(S(=O)(=O)c2cnc[nH]2)C1 (stereo not given)	3.15
CC(=O)N(c1ccccc1)C1SC(=O)N(c2ccccc2)C1=O (stereo not given)	-9.37
CCOCN(C(=O)Cn1c(CO)nc2ccccc21)c1c(C)cccc1CC	0.69

So for CCC1Oc2ccc(C)cc2N(CC(=O)NCCc2ccc(OC)c(OC)c2)C1=O (stereo not given) , the logged growth inhibition turned out to be 3.82

Note to self: growth inhibition recorded for Cc1ccc(C)c(N2CCN(C(=O)C3CCCN(S(=O)(=O)c4cnc[nH]4)C3)CC2)c1 (stereo not given) was -0.49

// sample `c1ccc(-c2noc(CN3CCN(c4ccccc4)CC3)n2)cc1` , its growth inhibition was 2.94

`CN(c1ccc(C(=O)O)cc1)S(=O)(=O)c1ccccc1` yielded growth inhibition of 5.12

Measured growth inhibition, `CCOC(=O)c1ccc(Nc2ccc(-c3ccc(OC)c(OC)c3)nn2)cc1` : -20

Form field growth inhibition, entry `CCOc1ccc(C(=O)Nc2cc(C)c3c(=O)oc4ccccc4c3n2)cc1` : 9.54

The compound listed as CC1CCc2nn(CC(=O)NC3CCCC(C)C3C)cc2C1 (stereo not given) shows growth inhibition equal to -6.19

// growth inhibition value for `Cc1cc(NC(=O)CSCCc2ccncc2)no1` : -5.15

Recorded growth inhibition (compound `O=C(CN1CCN(C2CCCCC2)CC1)Nc1ccccc1N1CCCCC1` ): -31.2

###

# assay explanation: inhibitors of the yeast RAM network, pilot screen, dse1pr::URA3 reporter, 5-FOA selection (AID 869);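 note: 0% = DMSO wells with no growth and 100% = 10 µM 1-NA-PP1 with full growth; RAM network block rescues cells from 5-FOA so hits raise OD615 growth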
# test settings: S. cerevisiae dse1pr::URA3 5-FOA growth, OD615, 2 d; at 10 µM; hits give high values; strain carries analog-sensitive mutant Cbk1 kinase
Active and inactive are the calls of the source.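 The calls were made as follows: active = inhibition over a set limit, the all-compound mean plus 3 SD, in both replicate runs; inconclusive = over that limit in just one replicate run; inactive = at or under that limit in both runs.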
reported endpoint: inhibition

COC(=O)c1c(NC(=O)CSc2nnnn2-c2ccccc2)sc2c1CCC(C)C2 (stereo not drawn)	2.46% (inactive)
COc1ccc(S(=O)(=O)Cc2ccc(C(=O)NCc3ccc(F)cc3)o2)cc1	0.735% (inactive)

GET /value?item= `CCN(CC)c1cccc(OC2=NS(=O)(=O)c3ccccc32)c1` &field=inhibition returns 1.63% (inactive)

Just so you know, measured inhibition for `CC(C)N(Cc1nc(-c2ccccc2)no1)S(=O)(=O)c1ccccc1` came out at 0.555% (inactive)

###

A collection of compounds and their measured growth inhibition
# assay explanation: Restrictive medium S. cerevisiae growth inhibition, OD615, pilot screen of yeast lifespan reduction project, restrictive growth control (AID 706);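 note: modified DeaD lifespan yeast strain shifted to restrictive glucose medium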
# test settings: OD615, 48 h, at 10 µM, hits give high values
The reply should be a number in %, with the unit left off.

Examples with their reported growth inhibition follow.
Cc1nn(-c2ccccc2)c2c1C(c1ccccc1)C(C#N)=C(N)O2 (stereo unspecified)	-12.2
Cc1ccc(N2CC(c3nc4ccccc4n3C)CC2=O)cc1C (stereo unspecified)	-2.28
COc1ccc2c(Cl)c(-c3nnc(SCC(N)=O)n3C)sc2c1	11.7
COc1ccccc1N1CCN(C(=O)CCCC2=NS(=O)(=O)c3ccccc3N2)CC1	-12.7
COc1cc(OC)cc(C(=O)OCn2nnc3ccccc3c2=O)c1	-4.46
Brc1ccc(-c2nc(-c3ccccn3)no2)o1	13
COC(=O)c1ccc(OCC(O)CN(CC(C)C)CC(C)C)cc1 (stereo unspecified)	-4.33
Cc1noc(C(=O)N2CCN(c3ccc(F)cc3)CC2)c1Cl	-16.4
Cn1c(=O)c2c(nc(CN3CCCCC3)n2Cc2c(F)cccc2Cl)n(C)c1=O	-10.9
CN1C(=O)NC(c2ccccc2)C2=C1CN(Cc1ccco1)C2=O (stereo unspecified)	-14.4

Briefly, growth inhibition measured for CCOc1ccccc1C1CC(c2ccc(Cl)cc2)Nc2nc(N)nn21 (stereo unspecified) : 23
